# key: entry, value: selectivity ratio
- Protocol notes: Selectivity index, ratio of HC50 for hemolytic activity in red blood cells (unknown origin) to MIC for antibacterial activity against penicillin-resistant Staphylococcus aureus ATCC43300
- Assay type: toxicity, cell-based, RBC
- Condition context: read-out: Selectivity Index
Property: selectivity ratio

1. CCCCCCCCCCCC[N+](C)(C)CCCCCCCOc1ccc(C(=O)/C=C/c2ccccc2)cc1.[Br-] 3
2. CCCCCCCCCCOc1cc[n+](CCCOc2ccc(/C=C/C(=O)c3ccc(OCCC[n+]4ccc(OCCCCCCCCCC)cc4)cc3)cc2)cc1.[Br-].[Br-] 1.3
3. CCCC[N+](C)(C)CCCOc1ccc(C(=O)/C=C/c2ccccc2)cc1.[Br-] 3

###

- System: Pseudomonas aeruginosa
- Protocol notes: Antibacterial activity against penicillin-susceptible Pseudomonas aeruginosa ATCC27853 by broth microdilution method
- Type: functional
Property: MIC

1) COc1ccc(CC(=O)Nc2cc[n+](CCCOc3ccc(C(=O)/C=C/c4ccccc4)cc3)cc2)cc1.[Br-] > 128 µg/mL
2) CCCCCCCCCCCC[N+](C)(C)CCCOc1ccc(C(=O)/C=C/c2ccccc2)cc1.[Br-] > 128 µg/mL
3) CCCCCCCC(=O)Nc1cc[n+](CCCOc2ccc(C(=O)/C=C/c3ccccc3)cc2)cc1.[Br-] > 128 µg/mL
4) CCCCCCCC[N+](C)(C)CCCOc1ccc(C(=O)/C=C/c2ccccc2)cc1.[Br-] 64 µg/mL
5) CCCCCCCC[N+](C)(C)CCCOc1ccc(/C=C/C(=O)c2ccc(OCCC[N+](C)(C)CCCCCCCC)cc2)cc1.[Br-].[Br-] 16 µg/mL
6) CCCC[N+](C)(C)CCCOc1ccc(/C=C/C(=O)c2ccc(OCCC[N+](C)(C)CCCC)cc2)cc1.[Br-].[Br-] > 128 µg/mL

###

Consider the following compounds and their measured selectivity ratio readings.
- Protocol notes: Selectivity index, ratio of HC50 for hemolytic activity in red blood cells (unknown origin) to MIC for antibacterial activity against penicillin-resistant Staphylococcus aureus ATCC43300
- Type: toxicity, cell-based, RBC
- Condition context: read-out: Selectivity Index
Property: selectivity ratio

1) CCCCOc1cc[n+](CCCOc2ccc(/C=C/C(=O)c3ccc(OCCC[n+]4ccc(OCCCC)cc4)cc3)cc2)cc1.[Br-].[Br-] > 320
2) O=C(/C=C/c1ccccc1)c1ccc(OCCC[n+]2ccc(NC(=O)c3ccc4ccccc4c3)cc2)cc1.[Br-] > 10
3) CCCCCC(=O)Nc1cc[n+](CCCOc2ccc(C(=O)/C=C/c3ccccc3)cc2)cc1.[Br-] > 320
4) O=C(Cc1ccc(-c2ccccc2)cc1)Nc1cc[n+](CCCOc2ccc(C(=O)/C=C/c3ccccc3)cc2)cc1.[Br-] > 10
5) CCCC(=O)Nc1cc[n+](CCCOc2ccc(C(=O)/C=C/c3ccccc3)cc2)cc1.[Br-] > 10
6) CCCCNC(=O)C[N+](C)(C)CCCOc1ccc(/C=C/C(=O)c2ccc(OCCC[N+](C)(C)CC(=O)NCCCC)cc2)cc1.[Br-].[Br-] > 160
